# System: MS2 coat protein
# PROTOCOL_DESCRIPTION: apparent KD of MS2 coat protein; designed switch direction (-1 OFF switch, 1 ON switch): -1; higher = weaker reporter binding
# RECORDED_CONDITIONS: Eterna round: R95; input ligand: microRNA oligo, concentration not stated
PROPERTY_NAME: apparent KD of MS2 coat protein
# number then unit; no other words

INPUT_SEQUENCE	REPORTED_MEASUREMENT
UUUAAUUUUUUUUUUUUACAAGCUUUUUGCUCGUCUUAUACAUGAGGAUCACCCAUGUAGGUGAGGGAUAAAUUAUC [JMF 43] (puzzle: Sensor v3, turn-off variant 2)	0.15 µM
CUUCACCCACCAGAGCUCACCCACAUACCUACUCAGGUGACAUGAGGAUCACCCAUGUUUUUUGCCCGUCUUAUCUU [Vexebedi] (puzzle: Sensor v3, turn-off variant 2)	0.216 µM

Next item in the queue.
Task: So what's the measured apparent KD of MS2 coat protein for this one? CAGUACUGAGGAUAUACAUGAGGAUCACCCAUGUGUUCCAGCUAGGAAACUAGCGAAAGUAGAAGGCAGUACUG [salish99_ex3_r3_068] (puzzle: Exclusion 3)
Result: 0.0229 µM

Data provenance is the supplement of paper PMC9170038.
